# Tested on: CWR22R
# test.method.notes: Antiproliferative activity against human 22Rv1 cells after 96 hrs by propidium iodide staining based fluorescence 2D monolayer assay
# Format: functional, cell-based
# details: 22Rv1, 96 h
pIC50: −log10 of the molar value.
experimental.readout: pIC50

molecule | tested.system | reported.value
C[C@](O)(CSc1cccc(C(F)(F)F)c1)C(=O)Nc1ccc(C#N)c(C(F)(F)F)c1 | CWR22R | 4.88
CC(O)(CSc1cccc(C(F)(F)F)c1)C(=O)Nc1ccc([N+](=O)[O-])cc1C(F)(F)F (centres undefined) | CWR22R | 4.90
CC(O)(CS(=O)(=O)c1ccc(F)cc1F)C(=O)Nc1ccc([N+](=O)[O-])cc1C(F)(F)F (centres undefined) | CWR22R | 4.52
CC(O)(CS(=O)(=O)c1cccc(C(F)(F)F)c1)C(=O)Nc1ccc(C#N)c(C(F)(F)F)c1 (centres undefined) | CWR22R | 4.68
